measurement.protocol: H1N1 influenza NS1A inhibitors, functional cell based assay (AID 504329)
condition.description: percent inhibition, at 12.5 µM, hits give high values
Among all 340,000 compounds or so, about 1,000 (0.29%) were called active. Only a sample is shown. Potency and affinity values are given separately.
quantity.kind: inhibition (%)
Numbers only, in %.

{"columns": ["compound", "endpoint.value"],
 "data": [
  ["Oc1ccc(Nc2ccnc3cc(Cl)ccc23)cc1", 3.37]
]}

# return inhibition for each item in the list
1. Oc1ccccc1C=Nc1ccccc1-c1nc2ccccc2[nH]1
2. O=C(CSc1nccc2ccccc12)N1CCN(c2ccccn2)CC1
3. ClCC1CSC(=NC23CC4CC(CC(C4)C2)C3)O1 (stereo not drawn)
4. O=C(O)c1ccccc1Nc1ccnc(Cl)n1
5. COCCNC(=S)Nc1ccc2nc(N3CCN(C)CC3)cc(C)c2c1
6. O=C(COC(=O)CSc1ccc2ccccc2c1)NCc1ccc2c(c1)OCO2
7. CCOC(=O)c1sc2nc(N3CCOCC3)c3c(c2c1N)CCC3
8. Oc1cc(Nc2ccccc2)cc2cccnc12

Key:
[41.1, 9.51, -6.27, 4.77, 8.16, 2.14, 8.09, 3.79]

# return inhibition for each item in the list
1. CCCCSCCCNC(=O)C1CCC(CNS(=O)(=O)c2ccccc2)CC1 (stereo not drawn)
2. Nc1c(Cl)ncnc1N/N=C/c1ccnc2ccccc12
3. c1ccc(-c2csc(Nc3cccnc3)n2)nc1
4. COC1=C(Nc2ccc(OC)cc2)C(=O)C(OC)=C(Nc2ccc(OC)cc2)C1=O
5. CCOc1ccc2ccccc2c1/C=N/NC(=O)c1ccncc1
6. COc1ccccc1/C=N/Nc1nccnc1Cl
7. C/C(=N\NC(=O)C1CCCN(S(=O)(=O)c2ccccc2)C1)c1cccnc1 (stereo not drawn)

Key:
[-20, -0.57, 14.1, 0.15, -4.1, 4.08, -20.5]

----------
Consider the following compounds; for each one, report its inhibition.
measurement.protocol: H1N1 influenza NS1A inhibitors, functional cell based assay (AID 504329)
condition.description: percent inhibition, at 12.5 µM, hits give high values
About 1,000 (0.29%) of roughly 340,000 compounds were called active. Only a sample is shown. Potency and affinity values are given separately.
Give bare numbers, in %.

Consider the worked cases shown below.
{"columns": ["compound", "inhibition / %"],
 "data": [
  ["O=C(CCC(=O)Nc1ccc(F)cc1)N/N=C/c1ccccc1O", -5.76],
  ["C/C(=N\\NC(=S)Nc1ccccc1C)c1ccc(O)cc1", 10.4],
  ["Cc1ncc(CO)c(/C=N/NC(=O)c2ccc(O)cc2)c1O", 15.5],
  ["COc1ccccc1/C=C1\\C(=O)NC(=S)N(c2ccccc2)C1=O", -27.6],
  ["O=C(O)c1cccc(-c2ccccc2)c1O", -26.6],
  ["c1cc(CNCCN2CCNCC2)ccn1", -2.65],
  ["O=C(N/N=C/c1ccccn1)c1cccc(S(=O)(=O)N2CCCC2)c1", -3],
  ["CCN(Cc1cnn(C)c1)C(=O)CC1C(=O)NCCN1Cc1cccc(OC)c1OC (configuration not stated)", -0.14],
  ["Cc1ncc(CO)c(/C=N/NC(=O)c2ccoc2C)c1O", 7.34],
  ["Cc1ncc(CO)c(/C=N/NC(=O)c2ccccc2Br)c1O", 18.5]
]}

# return inhibition for each item in the list
1. Cc1ccc2oc(-c3ccccc3C(=O)O)cc(=O)c2c1
2. Fc1ccc(NC(=S)NN=Cc2ccccc2Cl)cc1

Key:
1. 1.72
2. -9.24
